The measured values listed here are drawn from ChEMBL document CHEMBL1201862.

The entries below come with measured AC50 values attached.
- system_name: Heat shock protein HSP 90-alpha (Homo sapiens, UniProt P07900)
- Type: functional, organism-based
The source made the active and inactive calls.

Reference set (5 entries):
[
  {
    "molecule": "Cc1ccc(NC(=O)c2cc(N3C(=O)C=CC3=O)ccc2Cl)cc1C",
    "AC50": "1.5 µM (active)"
  },
  {
    "molecule": "CCC1C/C(=C\\c2cccnc2)C(=O)/C(=C/c2cccnc2)C1 (stereo unspecified)",
    "AC50": "12.7 µM (active)"
  },
  {
    "molecule": "O=[N+]([O-])c1cccc(C=NNc2ccc3ccccc3n2)c1O",
    "AC50": "2.76 µM (active)"
  },
  {
    "molecule": "O=C(C1CCN(C2CC(=O)N(c3cccc(Cl)c3)C2=O)CC1)N1CCCC1 (stereo unspecified)",
    "AC50": "4.21 µM (active)"
  },
  {
    "molecule": "COc1cc(N(C)C)ccc1C=c1c2ccccc2n2c1cc(-c1ccccc1)[n+]2C",
    "AC50": "7.6 µM (active)"
  }
]

Now for a further molecule.
Data point: CC(=O)NC(c1ccc(Cl)cc1)c1ccc2cccnc2c1O (stereo unspecified) ; AC50 = 2.68 µM (active)

* * *

- system_name: Leucine aminopeptidase (Plasmodium falciparum 3D7)
- Sequence (Q8IL11 whole entry): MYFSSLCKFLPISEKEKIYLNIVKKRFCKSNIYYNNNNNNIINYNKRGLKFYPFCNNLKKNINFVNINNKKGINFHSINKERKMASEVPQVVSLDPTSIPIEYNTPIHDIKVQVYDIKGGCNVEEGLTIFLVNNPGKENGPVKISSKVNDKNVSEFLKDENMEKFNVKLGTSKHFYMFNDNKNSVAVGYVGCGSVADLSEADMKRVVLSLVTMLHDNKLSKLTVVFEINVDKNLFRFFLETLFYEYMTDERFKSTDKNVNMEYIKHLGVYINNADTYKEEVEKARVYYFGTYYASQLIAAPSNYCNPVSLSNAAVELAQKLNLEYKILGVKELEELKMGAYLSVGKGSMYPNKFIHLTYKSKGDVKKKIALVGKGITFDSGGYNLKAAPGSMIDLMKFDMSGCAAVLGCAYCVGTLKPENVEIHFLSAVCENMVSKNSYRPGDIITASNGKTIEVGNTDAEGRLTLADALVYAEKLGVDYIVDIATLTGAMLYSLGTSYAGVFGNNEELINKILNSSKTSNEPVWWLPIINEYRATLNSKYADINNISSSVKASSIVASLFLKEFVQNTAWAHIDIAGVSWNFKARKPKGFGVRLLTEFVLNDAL
- experiment_description: P. falciparum M17LAP inhibitors, primary screen, biochemical, fluorogenic H-Leu-NHMec substrate, 1536-well (AID 1619)
- Assay type: functional
Activity calls are given as the source filed them. The rule behind the calls is not given here.
value_type: IC50

[
  {
    "molecule": "CCOC(=O)c1c(NC(=O)C2C3C=CC(C3)C2C(=O)O)sc2c1CCC(CC)C2 (stereo not given)",
    "system_name": "Leucine aminopeptidase (Plasmodium falciparum 3D7)",
    "IC50": "7.67 µM (active)"
  }
]

Data point: "CCOC(=O)Cn1c(=S)[nH]c2c(oc3ccc(Cl)cc32)c1=O" ; IC50 = 19.5 µM (active)

Data point: "COc1cc(/C=C2\C(=O)NC(=O)N(CCc3ccc(F)cc3)C2=O)ccc1O" ; IC50 = 15.8 µM (active)

Data point: "O=S(=O)(Nc1ccc(C(F)(F)F)cc1)c1c[nH]cn1" ; IC50 = 28.3 µM (active)

Data point: CCc1ccc(NC(=O)C2CC=CCC2C(=O)O)cc1 (stereo not given) ; IC50 = 3.48 µM (active)
